Test system: SN12C renal
experimental-protocol: NCI tumour cell line growth inhibition, 48 h
# maps each entry to its TGI

Example entries and their recorded answers appear below.
{"compound": "CN(C)CCCNC(=O)c1cc(NC(=O)CCNC(=O)c2ccc3c(c2)C(=O)c2ccccc2C3=O)cn1C", "TGI": "> 100 µM"}
{"compound": "COC(=O)CSc1ccccc1", "TGI": "> 100 µM"}
{"compound": "COc1ccc(-c2nc(N(C)C)c3ccccc3n2)cc1", "TGI": "39.8 µM"}
{"compound": "C=C1C(=O)OC2C[C@H](C)C3CC(=O)C(C)=C3CC12 (stereo not given in full)", "TGI": "26.1 µM"}
{"compound": "COc1cc(C2SCC(=O)N2c2ccc(-c3ccc(-n4c(-c5ccccc5)nc5ccccc5c4=O)cc3)cc2)ccc1O (stereo not given)", "TGI": "> 100 µM"}
{"compound": "CC1CC(=O)N2CCCNC2=C1C#N (stereo not given)", "TGI": "> 100 µM"}
{"compound": "Cc1ccc(-c2c(C#N)c(-c3ccc([N+](=O)[O-])cc3)c(C#N)c(=O)n2NS(=O)(=O)c2ccc(C)cc2)cc1", "TGI": "> 100 µM"}
{"compound": "O/N=C(\\C=N\\O)c1ccc2c(c1)Sc1ccccc1O2", "TGI": "37.1 µM"}
{"compound": "COc1ccc(C(=O)/C(=N/Nc2ccccc2)c2ccc(OC)cc2)cc1", "TGI": "> 100 µM"}
{"compound": "CCCCCCNC(=O)c1cc(C#Cc2cc(OC)ccc2OC)ccc1OC", "TGI": "> 100 µM"}

Qu. Report measured TGI on SN12C renal; entry: O=C(N1CCOCC1)C1(c2ccccc2)CCNCC1
Ans. > 100 µM

Qu. Report TGI under test system SN12C renal for COCC[N+](CCNC(=O)c1cccc2c(N)c3cccc(C)c3nc12)(CCOC)Cc1ccc([N+](=O)[O-])cc1 .
Ans. > 100 µM

Qu. Tell me TGI of O=C1OC(c2ccccc2)C2CC3CC4(CCC3CN12)OCCO4 (stereo not given) when tested on SN12C renal.
Ans. > 100 µM

Qu. Find TGI for C=C[C@@]1(C)CC2CC[C@]3(C)C(C)=CC(=O)CC3[C@]2(C)CC1O (stereo not given in full) on SN12C renal and write it down.
Ans. > 100 µM

Qu. Give TGI for this entry on SN12C renal: COc1cc(C2c3cc4c(cc3OC3(O)COC(=O)C23)OCO4)cc(OC)c1OC (stereo not given)
Ans. > 100 µM

Qu. Specify the recorded TGI for O=C(c1ccccn1)c1nnn2ccccc12 , system: SN12C renal.
Ans. > 100 µM

Qu. Look up SN12C renal data: TGI of C[C@@H]1CCC2[C@@H](C)[C@H](O[C@H]3O[C@@H]4O[C@@]5(C)CCC6[C@H](C)CCC([C@H]3C)[C@]64OO5)O[C@@H]3O[C@@]4(C)CCC1[C@@]23OO4 (stereo not given in full) , then report it.
Ans. 15.6 µM

Qu. Enter measured TGI, system SN12C renal, for the compound shown: OCCOCCN1CCN(c2nc(N3CCCC3)c3nc(Cl)c(NCc4ccccc4)nc3n2)CC1
Ans. 29.4 µM

Qu. Find TGI for O=C(Nc1ccc(Cl)c(Cl)c1)C(=O)Nn1c(=S)[nH]c2ccccc2c1=O on SN12C renal and write it down.
Ans. > 100 µM

Qu. Would you please give the reported TGI of C=C1C(=O)O[C@H]2[C@H]1CC/C(COC(=O)/C=C\C(=O)NCc1ccc(Cn3c(=O)sn(-c4ccc(OC)cc4)c3=O)cc1)=C\CC[C@@]1(C)O[C@@H]21 with SN12C renal?
Ans. 1.46 µM
